Values from patent US20250313563A1

- TESTED_ON: GSK3b (GST-full length GSK3b) (Homo sapiens (Human))
- Sequence (P49841 whole entry): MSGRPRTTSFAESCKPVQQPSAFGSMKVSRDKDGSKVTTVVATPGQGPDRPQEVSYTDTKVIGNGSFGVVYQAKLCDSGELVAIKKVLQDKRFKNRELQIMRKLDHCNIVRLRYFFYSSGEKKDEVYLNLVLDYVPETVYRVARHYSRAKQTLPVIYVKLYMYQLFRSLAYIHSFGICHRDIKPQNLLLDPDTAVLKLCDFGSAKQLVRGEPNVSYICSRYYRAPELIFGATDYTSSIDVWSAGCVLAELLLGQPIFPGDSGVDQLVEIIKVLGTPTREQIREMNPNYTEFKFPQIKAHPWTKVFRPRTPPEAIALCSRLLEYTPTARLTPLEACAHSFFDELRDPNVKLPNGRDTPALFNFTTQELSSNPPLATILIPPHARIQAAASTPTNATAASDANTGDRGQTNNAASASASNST
- EXPERIMENT: GSK3b TR-FRET kinase assay
- Format: biochemical
- EXPERIMENTAL_CONTEXT: 1 nM GSK3b, 2 μM ATP, 30 minute preincubation, Table 16; read-out: GSK3-B TR-FRET BIOCHEMICAL (TR-FRET)
- Procedure: TR-FRET Assay: The assay was performed in a white, 384 well, low volume, flat bottom plate (Grenier). After a 30 minute preincubation in assay buffer with the indicated concentration of compound, the kinase activity was initiated by the addition of the substrates. […] After 60 min at room temperature the plate was read on Envision plate reader using Ex: 340 nm, Em: 615 nm and […]. The normalized 665/615 Signal ratio versus log compound concentration was analyzed by XLFIT to yield IC50 values.
pIC50: −log10 of the molar value.
MEASURED_PROPERTY: pIC50

| MOLECULE | pIC50 |
| --- | --- |
| CC1(C)CC(=O)C2=C(C1)Nc1n[nH]cc1[C@]21CO[C@@H](C2CC2)C1 (stereo in doubt) | 5.30 to 6.00 |
| Cc1ccc(C)c(S(=O)(=O)N2CCC3(CC2)C2=C(CC(C)(C)CC2=O)Nc2n[nH]cc23)c1 | 6.00 to 7.00 |
| COc1cccc(S(=O)(=O)N2CC[C@]3(C2)C2=C(CC(C)(C)CC2=O)Nc2n[nH]cc23)c1 | ≥ 7.00 |
| CCn1nc(C)c(S(=O)(=O)N2CCC3(CC2)C2=C(CC(C)(C)CC2=O)Nc2n[nH]cc23)c1C | 5.30 to 6.00 |
| Cc1cc(S(=O)(=O)N2CCC3(CC2)C2=C(CC(C)(C)CC2=O)Nc2n[nH]cc23)cc(C)n1 | ≥ 7.00 |
| CC[C@@]1(c2cccc(-c3ccnc4c3CCCC4)c2)C2=C(CC(C)(C)CC2=O)Nc2n[nH]cc21 | < 5.30 |
| CCC1(c2cccc(-c3cncn3C(C)C)c2)C2=C(Nc3n[nH]cc31)C(F)C(C)(C)CC2=O (stereo not drawn) | ≥ 7.00 |
| CC[C@H]1C[C@@]2(CO1)C1=C(CC(C)(C)CC1=O)Nc1n[nH]cc12 | 5.30 to 6.00 |
| CC1(C)CC(=O)C2=C(C1)Nc1n[nH]cc1C21CCN(S(=O)(=O)c2cccc3ccncc23)CC1 | ≥ 7.00 |
| CC[C@]1(c2cccc(C3CN(C(C)=O)C3)c2)C2=C(CC(C)(C)CC2=O)Nc2n[nH]cc21 | < 5.30 |

Data request: Tell me pIC50 reported for CC[C@]1(c2ccccc2)C2=C(Nc3n[nH]cc31)[C@@H]1CC[C@@H](C1)C2=O
Data returned: < 5.30

Data request: Tell me pIC50 reported for Cn1ccc(S(=O)(=O)N2CCC3(CC2)C2=C(CC(C)(C)CC2=O)Nc2n[nH]cc23)n1
Data returned: ≥ 7.00
